Answer each item with its documented Kd.
Target: GDP-bound KRAS wild-type protein (Homo sapiens)
Experiment: Binding to KRAS by surface plasmon resonance (SPR), Single Cycle Kinetics
Conditions: SPR, Single Cycle Kinetics, GDP-bound KRAS wild-type protein; read-out: KRAS KD
Please state the figure in nM; there is no need to write the unit.

Exam item: // returns reported Kd for input CCC[C@H]1C(=O)N[C@@H]([C@@H](C)CC)C(=O)N2CCC[C@H]2C(=O)N(C)[C@H]2C/C=C\CCN(C2=O)[C@@H](Cc2ccc(C)cc2)C(=O)N(C)CC(=O)N[C@@H](CCc2cc(F)c(C(F)(F)F)c(F)c2)C(=O)N2C[C@H](OCC)C[C@H]2C(=O)N(C)C2(CCC2)C(=O)N(C)[C@@H](C2CCCC2)C(=O)N(C)[C@H](C(=O)N2CCCC2)CC(=O)N1C
Marked response: 0.15

Exam item: Similarly, CCCN(C)C(=O)[C@@H]1CC(=O)N(C)[C@@H](C2CCC2)C(=O)N[C@@H]([C@@H](C)CC)C(=O)N(C)CC(=O)N(C)[C@H]2C/C=C\CCN(C2=O)[C@@H](Cc2ccc(C(F)(F)F)cc2)C(=O)N(C)CC(=O)N[C@@H](CCc2ccc(C(F)(F)F)c(OC)c2)C(=O)N2C[C@@H](C)C[C@H]2C(=O)NC2(CCC2)C(=O)N(C)[C@@H](C2CCCC2)C(=O)N1C ?
Marked response: 0.12

Exam item: Repeat with CCOC[C@H]1C(=O)N[C@@H]([C@@H](C)CC)C(=O)N(C)CC(=O)N(C)[C@H]2C/C=C\CCN(C2=O)[C@@H](CC2CCCCC2)C(=O)N(C)CC(=O)N[C@@H](CCc2ccc(C(F)(F)F)c(OC)c2)C(=O)N2C[C@H](OCC)C[C@H]2C(=O)NC2(CC(C)(C)C2)C(=O)N(C)[C@@H](C(CC)CC)C(=O)N(C)[C@H](C(=O)N(C)C)CC(=O)N1C
Marked response: 1.8

###

System: human lung cancer strain NCI-H441;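 further: cell proliferation inhibition after four days measured by CellTiter-Glo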
Assay: cells
Conditions: NCI-H441, 96 h, read-out: NCI-H441 IC50 (nM), NCI-H441 cell proliferation, 4 days, CellTiter-Glo
*1 amine or outer side, *2 acyl side, *3 side chain or, on linkers, in order; H or OH if unused. Where a SMILES comes first, the peptide text is derived from it. Bridges are numbered along the chain shown (N, C = ends). [ ]: non-standard residue; d: D form. The star is where a group is joined. hPhe(3-Cl-4-CF3) = N[C@@H](CCc1ccc(C(F)(F)F)c(Cl)c1)C(=O)O; X2 = CCCN([C@@H](COC1CCC1)C(=O)[*:2])[*:1]; NMeGly(cPent) = CN[C@H](C(=O)O)C1CCCC1; NMeD = CN[C@@H](CC(=O)O)C(=O)O; NMeL = CN[C@@H](CC(C)C)C(=O)O; Morpholide = C1CN(*)CCO1; Ac4c = NC1(C(=O)O)CCC1; Sar = CNCC(=O)O
Would you kindly list IC50 for each of these compounds?
// note: answer is a bare numeric in nM

Exam item: Identify the measured IC50 of CCO[C@@H]1C[C@H]2C(=O)NC3(CC(C)(C)C3)C(=O)N(C)[C@@H](C3CCCC3)C(=O)N(C)[C@H](C(=O)N(C)C)CC(=O)N(C)[C@@H](CC(F)(F)F)C(=O)N[C@@H]([C@@H](C)CC)C(=O)N(C)CC(=O)N(C)[C@H]3C/C=C\CCN(C3=O)[C@@H](Cc3ccc(C(F)(F)F)cc3)C(=O)N(C)CC(=O)N[C@@H](CCc3cc(F)c(C(F)(F)F)c(F)c3)C(=O)N2C1 for human lung cancer strain NCI-H441.
Marked response: 2.7

Exam item: // repeat for CCCN1C(=O)CN(C)C(=O)CN(C)C(=O)[C@H]([C@@H](C)CC)NC(=O)[C@H](CC(C)C)N(C)C(=O)C[C@@H](C(=O)N2CCOCC2)N(C)C(=O)[C@H](C2CCCC2)N(C)C(=O)C2(CCC2)NC(=O)[C@@H]2CCCN2C(=O)[C@H](CCc2ccc(C(F)(F)F)c(Cl)c2)NC(=O)CN(C)C(=O)[C@@H]1COC1CCC1 [PP1816] ([NMeL]I[Sar][Sar][X2][Sar][hPhe(3-Cl-4-CF3)]P[Ac4c][NMeGly(cPent)][NMeD]-Morpholide; lactam N-11) and report
Marked response: 63.8

Exam item: Next: CC[C@H](C)[C@@H]1NC(=O)[C@H](CC)N(C)C(=O)C[C@@H](C(=O)N(C)C)N(C)C(=O)[C@H](C2CCCC2)N(C)C(=O)C2(CCCC2)N(C)C(=O)[C@@H]2C[C@@H](C)CN2C(=O)[C@H](CCc2cc(F)c(C(F)(F)F)c(F)c2)NC(=O)CN(C)C(=O)[C@H](Cc2ccc(C)cc2)N2CC/C=C\C[C@@H](C2=O)N(C)C(=O)[C@@H]2CCCN2C1=O
Marked response: 26.2

###

Biological target: GDP-bound KRAS wild-type protein (Homo sapiens)
Assay: Binding to KRAS by surface plasmon resonance (SPR), Single Cycle Kinetics
Settings: SPR, Single Cycle Kinetics, GDP-bound KRAS wild-type protein; read-out: KRAS KD
reported_property: Kd (nM)
Please give a number only; it is taken to be in nM.

Exam item: For the compound CCCN(C)C(=O)[C@@H]1CC(=O)N(C)[C@@H](C(C)C)C(=O)N[C@@H]([C@@H](C)CC)C(=O)N(C)CC(=O)N(C)[C@H]2C/C=C\CCN(C2=O)[C@@H](Cc2ccc(C(F)(F)F)cc2)C(=O)N(C)CC(=O)N[C@@H](CCc2ccc(C(F)(F)F)c(OC)c2)C(=O)N2C[C@H](OCC)C[C@H]2C(=O)NC2(CCC2)C(=O)N(C)[C@@H](C2CCCC2)C(=O)N1C [PP2020] , what Kd is on record?
Marked response: 0.19

Exam item: Next record, please: CCO[C@@H]1C[C@H]2C(=O)NC3(CC(C)(C)C3)C(=O)N(C)[C@@H](C3CCCC3)C(=O)N(C)[C@H](C(=O)N(C)CC)CC(=O)N(C)[C@@H](CC3CC3)C(=O)N[C@@H]([C@@H](C)CC)C(=O)N(C)CC(=O)N(C)[C@H]3C/C=C\CCN(C3=O)[C@@H](Cc3ccc(C(F)(F)F)cc3)C(=O)N(C)CC(=O)N[C@@H](CCc3cc(F)c(C(F)(F)F)c(F)c3)C(=O)N2C1 [PP1648]
Marked response: 0.11

Exam item: What do you have for CCC[C@H]1C(=O)N[C@@H]([C@@H](C)CC)C(=O)N(C)CC(=O)N(C)[C@H]2C/C=C\CCN(C2=O)[C@@H](Cc2ccc(C(F)(F)F)cc2)C(=O)N(C)CC(=O)N[C@@H](CCc2ccc(Cl)c(Cl)c2)C(=O)N2CCCCC[C@H]2C(=O)NC2(CC(C)(C)C2)C(=O)N(C)[C@@H](C(CC)CC)C(=O)N(C)[C@H](C(=O)N(C)C)CC(=O)N1C [PP3031] ?
Marked response: 1.9

Exam item: What do we get for CCO[C@@H]1C[C@H]2C(=O)NC3(CC(C)(C)C3)C(=O)N(C)[C@@H](C3CCCC3)C(=O)N(C)[C@H](C(=O)N(C)C)CC(=O)N(C)[C@H]3CCCCCc4ccc(cc4)C[C@@H](C(=O)N(C)CC(=O)N[C@@H](CCc4ccc(Cl)c(Cl)c4)C(=O)N2C1)N1CC/C=C\C[C@@H](C1=O)N(C)C(=O)CN(C)C(=O)[C@H]([C@@H](C)CC)NC3=O [PP3076] ?
Marked response: 0.059

Exam item: Also need CCO[C@@H]1C[C@H]2C(=O)NC3(CC(C)(C)C3)C(=O)N(C)[C@@H](C(CC)CC)C(=O)N(C)[C@H](C(=O)N(C)C)CC(=O)N(C)[C@@H](CC(C)C)C(=O)N[C@@H]([C@@H](C)CC)C(=O)N(C)CC(=O)N(C)[C@H]3C/C=C\CCN(C3=O)[C@@H](Cc3ccc(C(F)(F)F)cc3)C(=O)N(C)CC(=O)N[C@@H](CCc3ccc(C(F)(F)F)c(Cl)c3)C(=O)N2C1 [PP2132] , thanks.
Marked response: 0.27

Exam item: Do the same for CCO[C@@H]1C[C@H]2C(=O)NC3(CCC3)C(=O)N(C)[C@@H](C(CC)CC)C(=O)N(C)[C@H](C(=O)N(C)C)CC(=O)N(C)[C@@H](CC)C(=O)N[C@@H]([C@@H](C)CC)C(=O)N(C)CC(=O)N(C)[C@H]3C/C=C\CCN(C3=O)[C@@H](Cc3ccc(C(F)(F)F)cc3)C(=O)N(C)CC(=O)N[C@@H](CCc3cc(F)c(C(F)(F)F)c(F)c3)C(=O)N2C1 [PP1200] please
Marked response: 0.2

###

Molecular target: GDP-bound KRAS wild-type protein (Homo sapiens, UniProt P01116)
Sequence (P01116 whole entry): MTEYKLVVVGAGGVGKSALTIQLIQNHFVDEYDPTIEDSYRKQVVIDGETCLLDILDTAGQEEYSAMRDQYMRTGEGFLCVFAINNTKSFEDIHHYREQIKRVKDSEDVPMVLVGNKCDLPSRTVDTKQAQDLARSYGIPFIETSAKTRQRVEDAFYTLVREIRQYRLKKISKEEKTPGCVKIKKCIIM
Experiment: Binding to KRAS by surface plasmon resonance (SPR), Single Cycle Kinetics
Conditions: SPR, Single Cycle Kinetics, GDP-bound KRAS wild-type protein; read-out: KRAS KD
reported_property: Kd
Write the quantity with the unit trailing the number.

Exam item: Please provide the recorded Kd for CCC[C@H]1C(=O)N[C@@H]([C@@H](C)CC)C(=O)N(C)CC(=O)N(C)[C@H]2C/C=C\CCN(C2=O)[C@@H](Cc2ccc(C(F)(F)F)cc2)C(=O)N(C)CC(=O)N[C@@H](CCc2cc(F)c(C(F)(F)F)c(F)c2)C(=O)N2C[C@H](OCC)C[C@H]2C(=O)NC2(CCC2)C(=O)N(C)[C@@H](C2CCCC2)C(=O)N(CCC)[C@H](C(=O)N(C)C)CC(=O)N1C , tested on GDP-bound KRAS wild-type protein (Homo sapiens, UniProt P01116).
Marked response: 0.78 nM

Exam item: Try this compound next: CCO[C@@H]1C[C@H]2C(=O)N[C@@]3(C)CCCCCCC[C@@H](C(=O)N[C@@H]([C@@H](C)CC)C(=O)N(C)CC(=O)N(C)[C@H]4CCCCN(C4=O)[C@@H](Cc4ccc(C(F)(F)F)cc4)C(=O)N(C)CC(=O)N[C@@H](CCc4cc(F)c(C(F)(F)F)c(F)c4)C(=O)N2C1)N(C)C(=O)C[C@@H](C(=O)N1CCOCC1)N(C)C(=O)[C@H](C1CCCC1)N(C)C3=O
Marked response: 1.4 nM
